Method notes: Mutagenicity in Salmonella typhimurium TA98 at 30 to 5000 ug in presence of S9 metabolic activation system for 48 hrs by ames test
Format: toxicity, Salmonella enterica subsp. enterica serovar Typhimurium
Condition: dose 30-5000 µg
Measure: Activity

- Smiles data: "Cn1cc(-c2cccc(C(=O)Nc3cc(N4CC[C@@H](C(C)(C)O)C4)ncc3C(F)(F)F)n2)cn1"
  Value: "Non-Toxic"
- Smiles data: "Cc1nc(N)cc(N2CC[C@@H](C(C)(C)O)C2)n1"
  Value: "Non-Toxic"
- Smiles data: "CC(C)(O)[C@@H]1CCN(c2cnc(C(F)(F)F)c(N)c2)C1"
  Value: "Non-Toxic"
- Smiles data: "CC(C)(O)[C@@H]1CCN(c2cc(N)c(C(F)(F)F)cn2)C1"
  Value: "Toxic"

###

As an illustration, consider measured pIC50 for molecules on Dual specificity protein kinase CLK2 (Homo sapiens).
Sequence (P49760 whole entry): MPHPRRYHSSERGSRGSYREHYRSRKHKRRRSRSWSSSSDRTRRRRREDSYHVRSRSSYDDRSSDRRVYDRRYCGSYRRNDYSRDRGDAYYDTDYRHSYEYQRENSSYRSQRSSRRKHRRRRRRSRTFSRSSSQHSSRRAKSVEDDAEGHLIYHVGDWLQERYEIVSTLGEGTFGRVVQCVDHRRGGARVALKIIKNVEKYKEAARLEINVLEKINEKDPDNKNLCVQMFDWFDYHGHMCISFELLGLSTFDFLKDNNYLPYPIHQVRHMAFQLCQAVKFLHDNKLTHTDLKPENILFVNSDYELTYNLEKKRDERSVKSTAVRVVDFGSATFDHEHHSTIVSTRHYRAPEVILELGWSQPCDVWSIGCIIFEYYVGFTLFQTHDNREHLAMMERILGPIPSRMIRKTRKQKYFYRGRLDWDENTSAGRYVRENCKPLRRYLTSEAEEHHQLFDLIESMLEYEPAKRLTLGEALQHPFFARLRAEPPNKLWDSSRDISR
Numbers only, as −log10 of the molar value.

- Smiles data: "CC(C)(O)[C@@H]1CCN(c2cnc(C(F)(F)F)c(NC(=O)c3cccc(-c4cnn(CC(F)(F)F)c4)n3)c2)C1"
  System: "Dual specificity protein kinase CLK2 (Homo sapiens)"
  Value: 6.35
- Smiles data: "C[C@@H]1[C@@H](O)CN1c1cc(NC(=O)c2cccc(-c3cnn(C)c3)n2)c(C(F)(F)F)cn1"
  System: "Dual specificity protein kinase CLK2 (Homo sapiens)"
  Value: 7.92
- Smiles data: "Cc1nc(NC(=O)c2cccc(-c3cnn(C)c3)n2)cc(N2CC[C@@H](C(C)(C)O)C2)n1"
  System: "Dual specificity protein kinase CLK2 (Homo sapiens)"
  Value: 6.59
- Smiles data: "C[C@@H]1CN(c2cc(NC(=O)c3cccc(-c4cnn(C)c4)n3)c(C(F)(F)F)cn2)C[C@H](C)O1"
  System: "Dual specificity protein kinase CLK2 (Homo sapiens)"
  Value: 7.68
- Smiles data: "COC1CN(c2cc(NC(=O)c3cccc(-c4cnn(C)c4)n3)c(C(F)(F)F)cn2)C1"
  System: "Dual specificity protein kinase CLK2 (Homo sapiens)"
  Value: 7.17
- Smiles data: "CC(C)(O)[C@@H]1CCN(c2cnc(C(F)(F)F)c(NC(=O)c3cccc(-c4cnn(C5CCC5)c4)n3)c2)C1"
  System: "Dual specificity protein kinase CLK2 (Homo sapiens)"
  Value: 7.04
- Smiles data: "Cn1cc(-c2cccc(C(=O)Nc3cc(N4CC[C@@H](C(C)(C)O)C4)ncc3C(F)(F)F)n2)cn1"
  System: "Dual specificity protein kinase CLK2 (Homo sapiens)"
  Value: 7.20
- Smiles data: "CC(C)(O)[C@@H]1CCN(c2cnc(C(F)(F)F)c(NC(=O)c3cccc(-c4cnn(CC5CC5)c4)n3)c2)C1"
  System: "Dual specificity protein kinase CLK2 (Homo sapiens)"
  Value: 7.64

The reported pIC50 value, Dual specificity protein kinase CLK2 (Homo sapiens), for `C[C@@H]1[C@H](O)CCN1c1cc(NC(=O)c2cccc(-c3cnn(C)c3)n2)c(C(F)(F)F)cn1` reads 7.07

###

System: Leucine-rich repeat serine/threonine-protein kinase 2 (Homo sapiens, UniProt Q5S007, G2019S)
Sequence (Q5S007 whole entry G2019S, the tested form may be a part): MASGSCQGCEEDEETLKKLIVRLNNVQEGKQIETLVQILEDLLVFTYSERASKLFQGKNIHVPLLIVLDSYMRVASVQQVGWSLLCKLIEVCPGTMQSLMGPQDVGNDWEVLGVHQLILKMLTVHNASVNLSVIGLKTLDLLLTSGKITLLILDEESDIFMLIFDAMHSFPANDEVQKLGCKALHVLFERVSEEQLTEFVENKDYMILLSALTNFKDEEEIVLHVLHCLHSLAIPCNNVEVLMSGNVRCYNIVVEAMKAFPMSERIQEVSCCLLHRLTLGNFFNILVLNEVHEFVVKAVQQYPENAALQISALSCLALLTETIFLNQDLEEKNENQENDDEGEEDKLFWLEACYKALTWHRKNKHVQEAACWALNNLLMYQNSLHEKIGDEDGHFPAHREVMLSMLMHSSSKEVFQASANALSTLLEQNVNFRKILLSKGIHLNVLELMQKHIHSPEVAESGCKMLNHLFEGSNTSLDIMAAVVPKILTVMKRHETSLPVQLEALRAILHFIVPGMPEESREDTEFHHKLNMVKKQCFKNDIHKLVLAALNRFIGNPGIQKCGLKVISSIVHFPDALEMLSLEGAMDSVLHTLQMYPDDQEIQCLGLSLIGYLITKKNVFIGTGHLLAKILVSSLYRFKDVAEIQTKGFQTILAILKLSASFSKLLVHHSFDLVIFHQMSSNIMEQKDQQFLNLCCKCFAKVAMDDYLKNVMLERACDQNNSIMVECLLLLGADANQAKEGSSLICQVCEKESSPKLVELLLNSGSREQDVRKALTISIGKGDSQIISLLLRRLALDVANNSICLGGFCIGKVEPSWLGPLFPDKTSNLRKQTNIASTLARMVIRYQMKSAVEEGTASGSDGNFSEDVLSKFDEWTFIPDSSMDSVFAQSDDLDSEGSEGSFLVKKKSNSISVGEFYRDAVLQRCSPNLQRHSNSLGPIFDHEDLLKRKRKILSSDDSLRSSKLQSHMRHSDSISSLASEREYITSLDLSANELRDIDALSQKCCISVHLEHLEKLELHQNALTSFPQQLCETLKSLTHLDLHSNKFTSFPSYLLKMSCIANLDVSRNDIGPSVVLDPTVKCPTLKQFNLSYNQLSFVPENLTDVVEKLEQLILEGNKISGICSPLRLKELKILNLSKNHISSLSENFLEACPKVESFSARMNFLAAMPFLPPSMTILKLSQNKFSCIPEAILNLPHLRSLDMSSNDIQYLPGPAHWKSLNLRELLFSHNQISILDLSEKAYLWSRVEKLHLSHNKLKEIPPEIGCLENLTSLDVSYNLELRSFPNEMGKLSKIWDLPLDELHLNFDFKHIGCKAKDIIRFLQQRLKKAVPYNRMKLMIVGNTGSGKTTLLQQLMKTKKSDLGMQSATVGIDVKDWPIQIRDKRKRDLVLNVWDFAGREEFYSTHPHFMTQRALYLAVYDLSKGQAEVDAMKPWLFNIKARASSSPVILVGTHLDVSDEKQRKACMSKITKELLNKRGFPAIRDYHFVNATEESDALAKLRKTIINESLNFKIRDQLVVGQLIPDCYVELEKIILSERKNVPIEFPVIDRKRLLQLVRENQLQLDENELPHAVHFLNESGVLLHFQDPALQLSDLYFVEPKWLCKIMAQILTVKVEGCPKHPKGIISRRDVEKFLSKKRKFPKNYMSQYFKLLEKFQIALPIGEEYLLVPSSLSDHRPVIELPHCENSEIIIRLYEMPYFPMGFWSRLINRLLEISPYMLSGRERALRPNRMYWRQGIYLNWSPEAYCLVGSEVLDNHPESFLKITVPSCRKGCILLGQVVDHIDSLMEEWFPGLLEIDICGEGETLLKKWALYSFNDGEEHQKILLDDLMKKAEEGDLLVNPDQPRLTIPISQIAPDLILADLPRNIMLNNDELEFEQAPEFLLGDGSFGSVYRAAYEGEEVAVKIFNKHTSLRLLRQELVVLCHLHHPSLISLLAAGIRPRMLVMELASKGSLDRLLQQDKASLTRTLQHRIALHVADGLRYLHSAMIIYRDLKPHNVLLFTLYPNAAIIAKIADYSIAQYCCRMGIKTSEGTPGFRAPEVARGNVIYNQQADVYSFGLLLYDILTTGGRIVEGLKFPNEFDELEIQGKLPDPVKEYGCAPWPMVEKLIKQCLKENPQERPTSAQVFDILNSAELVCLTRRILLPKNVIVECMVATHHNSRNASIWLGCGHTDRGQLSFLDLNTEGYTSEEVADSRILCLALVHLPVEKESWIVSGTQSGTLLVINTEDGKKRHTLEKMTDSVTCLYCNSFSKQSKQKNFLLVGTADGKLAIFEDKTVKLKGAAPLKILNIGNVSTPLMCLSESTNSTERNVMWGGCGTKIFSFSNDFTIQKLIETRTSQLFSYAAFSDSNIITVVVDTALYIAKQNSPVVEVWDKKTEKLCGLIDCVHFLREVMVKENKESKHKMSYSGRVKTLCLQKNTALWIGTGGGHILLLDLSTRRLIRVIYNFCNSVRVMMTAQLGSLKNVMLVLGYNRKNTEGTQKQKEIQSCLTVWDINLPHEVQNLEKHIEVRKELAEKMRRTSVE
Method notes: Inhibition of recombinant human GST20 tagged truncated LRRK2 G2019S mutant assessed as substrate phosphorylation preincubated for 15 mins followed by substrate addition and measured after 90 mins using fluorescein-labeled LRRK2tide as substrate in presence of ATP by TR-FRET based Lanthascreen kinase activity assay
Hi there, I'd appreciate the recorded IC50 for every entry that follows.
One number for each entry, in nM.

- Smiles data: "C[C@H]1CN(c2cc(NC(=O)c3cccc(-c4cnn(C)c4)n3)c(C(F)(F)F)cn2)CCN1C1COC1"
  Measure: "IC50"
  Value: 1.5
- Smiles data: "Cc1cnc(N2C[C@@H](C)O[C@@H](C)C2)cc1NC(=O)c1cccc(-c2cnn(C)c2)n1"
  Measure: "IC50"
  Value: 9
- Smiles data: "Cn1cc(-c2cccc(C(=O)Nc3cc(N4CC(O)C4)ncc3C(F)(F)F)n2)cn1"
  Measure: "IC50"
  Value: 4.8
- Smiles data: "C[C@@H]1CN(c2cc(NC(=O)c3cccc(-c4cnn(C)c4)n3)c(C(F)(F)F)cn2)C[C@H](C)O1"
  Measure: "IC50"
  Value: 4
- Smiles data: "COC1CN(c2cc(NC(=O)c3cccc(-c4cnn(C)c4)n3)c(C(F)(F)F)cn2)C1"
  Measure: "IC50"
  Value: 28

Below are 2 compounds. Give each one its IC50.
1. CC(C)(O)[C@@H]1CCN(c2cnc(C(F)(F)F)c(NC(=O)c3cccc(-c4cnn(CC5CC5)c4)n3)c2)C1
2. CCn1cc(-c2cccc(C(=O)Nc3cc(N4CC[C@@H](C(C)(C)O)C4)cnc3C(F)(F)F)n2)cn1

Output line:
8.6
40

Below are 7 compounds. Give each one its IC50.
1. C[C@@H]1[C@H](O)CCN1c1cc(NC(=O)c2cccc(-c3cnn(C)c3)n2)c(C(F)(F)F)cn1
2. Cn1cc(-c2cccc(C(=O)Nc3cnn(C4CCC4)c3)c2F)cn1
3. CC(C)(O)[C@@H]1CCN(c2cnc(C(F)(F)F)c(NC(=O)c3cccc(-c4cnn(CC5(C(F)(F)F)CC5)c4)n3)c2)C1
4. CC(C)(O)[C@@H]1CCN(c2cnc(C(F)(F)F)c(NC(=O)c3cccc(-c4cnn(C5CCC5)c4)n3)c2)C1
5. CC(C)(O)[C@@H]1CCN(c2cnc(C(F)(F)F)c(NC(=O)c3cccc(-c4cnn(CC(F)(F)F)c4)n3)c2)C1
6. Cn1cc(-c2cccc(C(=O)Nc3cc(N4CC[C@@H](C(C)(C)O)C4)ncc3C(F)(F)F)n2)cn1
7. Cn1cc(-c2cccc(C(=O)Nc3cc(N4CC[C@@H](C(C)(C)O)C4)cnc3C(F)(F)F)n2)cn1

Output line:
1: 5; 2: 70; 3: 8; 4: 19; 5: 10; 6: 1; 7: 17
